Assay: chemical genetic growth profiling, strain panel (AID 1159580);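 note: tested at 20 µM; growth read once vehicle control cultures reached saturation at 30 °C; 1 = growth at the plate median or of vehicle wells; lower values mean less growth of the strain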
Details: S. cerevisiae deletion strains, growth OD, locus YFR010W, strain ubp6, stronger effect = lower value
Among all 5,500 compounds or so, about 2,000 (36%) were called active. Roughly 18% stayed inconclusive and do not appear here. This is one part of the list.
READOUT: normalized growth
Write no unit; give the number alone.

// below: answered molecules
MOLECULE	normalized growth
C[C@@H]1OC(O[C@H]2C(O[C@H]3CC[C@@]4(C)C(CC[C@]5(C)C4CC=C4C6CC(C)(C)CC[C@]6(C(=O)O)CC[C@]45C)[C@]3(C)CO)OC[C@H](O)[C@@H]2O)[C@H](O)[C@H](O)[C@H]1O (some centres not stated)	0.0632
CC(CC(=O)C(O)C(C)(C)O)C1C(=O)CC2(C)C3=CCC4C(C)(C)C(OC5OCC(O)C(O)C5O)CCC45CC35C(O)CC12C (configuration not stated)	1.01
N#CC(O[C@@H]1O[C@H](CO[C@@H]2O[C@H](CO)[C@@H](O)[C@H](O)[C@H]2O)[C@@H](O)[C@H](O)[C@H]1O)c1ccccc1 (some centres not stated)	0.977
CO[C@@]12[C@@H]3NC3CN1C1=C(C(=O)C(N)=C(C)C1=O)[C@@H]2COC(N)=O (some centres not stated)	0.927
CC1(C)CC(O)C2(C)CCC3(C)C(=CCC4C5(C)CCC(O)C(C)(CO)C5CCC43C)C2C1 (configuration not stated)	1.03

// query For the molecule COc1cc(C(=O)NCCCCCC(=O)O)cc(OC)c1OC , what normalized growth is on record?
// result 0.966

// query Entry to check: CCCCCCCCCCCCCCC(C(=O)O)C(O)(CC(=O)OC)C(=O)O (configuration not stated)
// result 1.08

###

Experiment: chemical genetic growth profiling, strain panel (AID 1159580)
Conditions: S. cerevisiae deletion strains, growth OD, locus YKL160W, strain elf1, stronger effect = lower value
About 2,000 (36%) of roughly 5,500 compounds were called active. Not shown: some 18% with an inconclusive outcome. This is one part of the list.
The following compounds are shown together with reported normalized growth values.
Write no unit; give the number alone.

// query For the compound CC(C)CCCC1(C)C=Cc2c(O)c3c(c(CCC(C)C)c2O1)OC12C(CC4CC1C(C)(C)OC2(CCC(C)C(=O)O)C4O)C3=O (stereo not drawn) , what normalized growth is on record?
// result 1

###

Test: chemical genetic growth profiling, strain panel (AID 1159580)
Conditions: S. cerevisiae deletion strains, growth OD, locus YHR079C, strain IRE1 (second series), stronger effect = lower value
About 2,000 (36%) of roughly 5,500 compounds were called active. Not shown: some 18% with an inconclusive outcome. The list shows a part of the results.
READOUT: normalized growth
Write no unit; give the number alone.

// below: answered compounds
> print(dat)
                                   compound  quantitative.result
1              O=C1c2c(O)cccc2Cc2cccc(O)c21                0.994
2  COc1ccc2c(c1)c(CC(=O)OCC(=O)O)c(C)n2C(=O)c1ccc(Cl)cc1                 1.01
3           Cc1cc(O)c2c(c1)Cc1cccc(O)c1C2=O                 1.02
4       Nc1ccc(S(=O)(=O)Nc2cnc3ccccc3n2)cc1                0.989
5  CC(=O)/C=C\[C@@H]1[C@@]2(C)CCCC(C)(C)C2CC[C@@]1(C)O (stereo partly specified)                0.987

// query For the compound COc1ccc2c(c1)c(CC(=O)O)c(C)n2C(=O)c1ccc(Cl)cc1 , what normalized growth is on record?
// result 0.987

// query Entry to check: CC(=O)NCc1c(I)c(NC(C)=O)c(I)c(C(=O)O)c1I
// result 0.992

// query Entry to check: Nc1ccc(S(=O)(=O)c2ccc(N)cc2)cc1
// result 1.01

// query Entry to check: C=C/C(C)=C\CC1C(C)(O)CCC2C(C)(C)CCCC21C (stereo unspecified)
// result 0.504

// query Entry to check: NC(N)=N/N=C/c1c(Cl)cccc1Cl
// result 1

// query Entry to check: O=C(COc1ccc(Cl)cc1)N1CCN(Cc2ccc3c(c2)OCO3)CC1
// result 0.977

###

Assay: chemical genetic growth profiling, strain panel (AID 1159580);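 note: tested at 20 µM; growth read once vehicle control cultures reached saturation at 30 °C; 1 = growth at the plate median or of vehicle wells; lower values mean less growth of the strain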
Conditions: S. cerevisiae deletion strains, growth OD, locus YMR205C, strain PFK2 (second series), stronger effect = lower value
Out of some 5,500 compounds screened, about 2,000 (36%) were called active. Another 18% or so got no clear call; they are omitted. The list shows a part of the results.
READOUT: normalized growth
Write no unit; give the number alone.

> print(dat)
              input.smiles            readout  quantitative.result
1  N#Cc1c2ccccc2nc2ccccc12  normalized growth                0.761

// query For the molecule O=[N+]([O-])c1cnc(Sc2nnc(SCc3cccc(C(F)(F)F)c3)s2)s1 , what normalized growth is on record?
// result 0.101

// query Entry to check: CCOC(=O)c1cc(CC)sc1NC(=O)c1ccc([N+](=O)[O-])o1
// result 0.47

// query Entry to check: O=C(Nc1ccccc1Sc1ccc([N+](=O)[O-])cc1[N+](=O)[O-])C(Cl)(Cl)Cl
// result 0.973

// query Entry to check: COc1ccc2nc3ccccc3c(N)c2c1
// result 0.258

// query Entry to check: O=C(NCCc1ccncc1)c1ccc(Cl)c(Cl)c1
// result 0.978

// query Entry to check: O=C(c1ccc(Cl)cc1)N(Cc1ccccc1)Cc1cccnc1
// result 0.885

// query Entry to check: O=C(c1cccs1)N(Cc1cccnc1)Cc1ccc(Cl)cc1Cl
// result 0.944

// query Entry to check: CC(C)(C)C(=O)N(Cc1cccnc1)Cc1ccc(Cl)cc1Cl
// result 0.936

// query Entry to check: OC1CCN(c2cc(C(F)(F)F)nc3cc(Cl)cc(Cl)c23)CC1
// result 0.975

// query Entry to check: O=S(=O)(c1ccc(Cl)cc1)N(Cc1cccnc1)Cc1ccc(Cl)cc1Cl
// result 0.713

###

Assay: chemical genetic growth profiling, strain panel (AID 1159580);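 note: tested at 20 µM; growth read once vehicle control cultures reached saturation at 30 °C; 1 = growth at the plate median or of vehicle wells; lower values mean less growth of the strain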
Details: S. cerevisiae deletion strains, growth OD, locus YGL248W, strain PDE1
The whole screen tested about 5,500 compounds, of which about 2,000 (36%) were called active. About 18% were inconclusive and are not listed. Cut-off read from the data, not from the text of the source: active = normalized growth mostly below about 0.91 (no sharp cut-off); inconclusive = no clear call, values can overlap the other calls; inactive = mostly above about 0.92. This is one part of the list.
A correct response names exactly one class from active, inactive

Please review the entries below; each comes with its answer.
> print(dat)
                                   compound  class.assignment
1  CC(C)=CCCC1(C)C=Cc2c(O)c3c(c(CC=C(C)C)c2O1)OC12C(=CC4CC1C(C)(C)OC2(C/C=C(/C)C(=O)O)C4=O)C3=O (centres undefined)            active
2  Nc1ccccc1C(=O)CC(N)C(=O)O (centres undefined)          inactive

// query Outcome logged for CO[C@@]12[C@@H]3NC3CN1C1=C(C(=O)C(N)=C(C)C1=O)[C@@H]2COC(N)=O (some centres undefined) in this assay:
// result inactive

// query Entry to check: O=c1oc2cc(O)ccc2s1
// result inactive

###

Experiment: chemical genetic growth profiling, strain panel (AID 1159580);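 note: tested at 20 µM; growth read once vehicle control cultures reached saturation at 30 °C; 1 = growth at the plate median or of vehicle wells; lower values mean less growth of the strain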
Settings: S. cerevisiae deletion strains, growth OD, locus YKL203C, strain TOR2, stronger effect = lower value
Screen size: about 5,500 compounds; about 2,000 (36%) were called active. About 18% were inconclusive and are not listed. Some of the results follow.
READOUT: normalized growth
Write no unit; give the number alone.

// below: answered compounds
> print(dat)
                                   compound            readout  quantitative.result
1         C=CCc1c(CCC)nc(-c2ccccn2)[nH]c1=O  normalized growth                0.926
2  Cc1ccc(S(=O)(=O)n2c(Sc3ccc([N+](=O)[O-])cc3[N+](=O)[O-])nc3cc(C)ccc32)cc1  normalized growth                    1
3  O=[N+]([O-])c1ccc(S(=O)(=O)c2ccccc2)nc1S(=O)(=O)c1ccccc1  normalized growth                0.555
4        O=C(Nc1ccc(Cl)cc1)SCc1c(Cl)cccc1Cl  normalized growth                0.891
5  OC1CCN(c2cc(C(F)(F)F)nc3cc(Cl)cc(Cl)c23)CC1  normalized growth                0.987

// query For the compound COc1cccc(NC(=S)NC2CC(C)CC(C)(C)C2)c1 (stereo unspecified) , what normalized growth is on record?
// result 1.03

// query Entry to check: O=C(NCC1COc2ccccc2O1)c1ccc(Cl)cc1 (stereo unspecified)
// result 0.708

// query Entry to check: Nc1ccc(Sc2ccccc2)nc1Sc1ccccc1
// result 1.01
